- System under test: CYP2A6 (Homo sapiens, UniProt P11509)
- Sequence (P11509 whole entry): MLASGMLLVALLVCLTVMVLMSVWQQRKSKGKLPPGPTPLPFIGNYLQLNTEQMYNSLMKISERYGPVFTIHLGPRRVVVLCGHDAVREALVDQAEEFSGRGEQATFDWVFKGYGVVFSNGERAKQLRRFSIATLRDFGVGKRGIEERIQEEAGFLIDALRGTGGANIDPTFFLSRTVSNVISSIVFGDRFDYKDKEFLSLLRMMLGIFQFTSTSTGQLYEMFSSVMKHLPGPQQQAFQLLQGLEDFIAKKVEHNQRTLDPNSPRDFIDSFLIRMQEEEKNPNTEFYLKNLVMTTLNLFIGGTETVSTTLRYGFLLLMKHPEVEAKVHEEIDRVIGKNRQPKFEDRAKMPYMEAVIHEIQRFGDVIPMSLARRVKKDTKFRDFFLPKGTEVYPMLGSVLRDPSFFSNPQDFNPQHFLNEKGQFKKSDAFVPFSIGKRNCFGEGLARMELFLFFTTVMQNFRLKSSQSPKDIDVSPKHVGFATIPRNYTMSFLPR
- Assay: biochemical
- Condition description: IC50 against CYP2A6; human liver microsomes
Where a name gives a salt, the structure may show the parent alone.
Readout label: IC50

>>> measurement("NCC#Cc1cnccc1Cl [Compound L, Dihydrochloride]")
"< 1 µM"
>>> measurement("NCC#Cc1cnccc1-c1cncnc1 [Compound Q, Trihydrochloride]")
"< 10 µM"
>>> measurement("NCC#Cc1cnccc1-c1ccco1 [Compound M, Dihydrochloride]")
"< 1 µM"
>>> measurement("COc1ccncc1C#CCN")
"< 10 µM"
>>> measurement("NCC#Cc1cnccc1-c1ccncc1 [Compound P, Trihydrochloride]")
"< 10 µM"

Value source: patent US20210276987A1
